pIC50: −log10 of the molar value.
Measured pIC50 (Human immunodeficiency virus type 1 protease (Human immunodeficiency virus 1))
VALUE TYPE: pIC50

[[record]]
compound = "CC(C)(C)OC(=O)N[C@@H](Cc1ccccc1)[C@@H](O)CNC[C@H](O)[C@H](Cc1ccccc1)NC(=O)OC(C)(C)C"
comparator = "<"
assay_value = 5.00

[[record]]
compound = "CC(C)(C)OC(=O)N[C@@H](Cc1ccccc1)[C@H](O)CNC[C@@H](O)[C@@H](Cc1ccccc1)NC(=O)OC(C)(C)C"
comparator = "="
assay_value = 5.00

[[record]]
compound = "CC(C)OC(=O)N[C@@H](Cc1ccccc1)[C@H](O)CNC[C@@H](O)[C@H](Cc1ccccc1)NC(=O)OC(C)C"
comparator = "="
assay_value = 6.05

[[record]]
compound = "CC(C)(C)OC(=O)NC(CCc1ccccc1)[C@H](O)CNC[C@@H](O)[C@H](Cc1ccccc1)NC(=O)OC(C)(C)C (some centres not stated)"
comparator = "="
assay_value = 6.30

[[record]]
compound = "CC(C)(C)OC(=O)NC(Cc1ccc(O)cc1)[C@H](O)CNC[C@@H](O)[C@H](Cc1ccccc1)NC(=O)OC(C)(C)C (some centres not stated)"
comparator = "="
assay_value = 7.00

[[record]]
compound = "CN(CC(O)[C@H](Cc1ccccc1)NC(=O)OC(C)(C)C)C[C@@H](O)[C@H](Cc1ccccc1)NC(=O)OC(C)(C)C (some centres not stated)"
comparator = "<"
assay_value = 5.00

[[record]]
compound = "CC(C)(C)OC(=O)N[C@@H](Cc1ccccc1)[C@H](O)CNC[C@H](O)[C@@H](Cc1ccccc1)NC(=O)OC(C)(C)C"
comparator = "<"
assay_value = 5.00

